Answer each item with its documented Relative binding activity, %.
Target: T1, Biotin-huCGRPaSA (human, not fully specified; biotin (position not given))
T1 construct: exact construct ('aSA') not explained; also called Biotin CGRPaSA; full-length (1-37) CGRP
T1 peptide: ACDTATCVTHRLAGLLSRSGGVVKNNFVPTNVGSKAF
Experiment: ELISA, supernatant; relative to chimeric C245
Description: Biotin CGRPaSA was diluted with PBS (Hyclone) to 1.0 μg/mL, and the dilution was added to a microplate at 100 μL/well. The plate was let stand in an incubator at 37° C. and coated for 90 min and then washed, and 2% BSA was added to the plate at 200 μL/well. […] Finally, a 2 M hydrochloric acid solution was added at 100 μL/well to stop the reaction while avoiding bubbles, and the plates were read on a microplate reader within 10 min (wavelength: 450/620 nm).
Give bare numbers, in %.

The examples below pair each entry with its known result.
[[record]]
binder = "hu84 (antibody, V domains shown, 1F5 HC-5/1F5 LC1-2) VH: QVQLVQSGAEVKKPGASVKVSCKASGYTFIDFNMHWVRQAPGQRLEWMGYIYPYNADVVYNQDFTNRVTLTVDTSSSTAYMELSSLRSEDTAVYYCAREGLGGYWGQGTLVTVSS VL: EIVLTQSPATLSLSPGERATLSCKASQNIDFDGYAYMNWYQHKPGQAPRVLIYSVFNLESGIPARFSGSGSGTDFTLTISSLEPEDFAVYYCQQSHEVPYTFGQGTKLEIK"
unit_string = "%"
recorded_value = 111

[[record]]
binder = "hu137 (antibody, V domains shown, 2B8 HC1-3/1F5 LC1-3) VH: QVQLVQSGAEVKKPGASVKVSCKASGYTFTDYNMHWVRQAPGQGLEWMGNIYPYNAGTVYNQKFNNRVTLTVDTSSSTAYMELSRLRSDDTAVYYCAREGLGGYWGQGTLVTVSS VL: DIVLTQSPASLAVSPGQRATITCKASQNIDFDGYAYMNWYQQKPGQPPKVLIYSVFNLESGVPARFSGSGSGTDFTLTINPVEADDTANYYCQQSHEVPYTFGQGTKLEIK"
unit_string = "%"
recorded_value = 93


Looking for the measured Relative binding activity, % of hu183 (antibody, V domains shown, 3E5 HC-4/1A2 LC2-1) VH: QVQLVQSGAEVKKPGASVKVSCKTSGYTFTDYNMHWVRQAPGQRLEWMGYISPYNAGTAYNQKFKFRVTLTVDTSSSTAYMELSSLRSEDTAVYYCAREGLGGYWGQGTLVTVSS VL: DIVLTQSPASLAVSPGQRATITCKASQNIDYDGYAYLNWYQQKPGQPPKVLIYSVFNLESGVPARFSGSGSGTDFTLTINPVEANDTANYYCQQSNEFPYTFGQGTKLEIK , can you help? 26

Entry source: patent US20260125454A1
